Listing: apparent KD of K4 kissing-loop reporter of selected sequences
system: K4 kissing-loop RNA reporter; test: apparent KD of K4 kissing-loop reporter; higher = weaker reporter binding; conditions: Eterna round: R107; input ligand: tryptophan 2.4 mM;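 also: bound reporter read as fluorescence of individual clusters on recovered sequencing chips by microscopy, with normalized cluster intensities fitted with a binding model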

macromoleculeSequence: GGAUCCACCAGUGAUGUUGGAGAAAACUCGAAGGAUAUGACGAAAGUCAGAAGGUUGUAGACUGGACAAAGUCCGGUCGGAUCCA [FmnA 23 G30+U56]
scaleUnit: nM
apparent KD of K4 kissing-loop reporter: 421

macromoleculeSequence: CUUGGGCUUGCGGCCGCCACUCAAACAUCAUUAAGGAUGGUCCACGGGCAAGUGAUGUUUAUCCGGAGGACCGGGCAUAGCGACA [theeternabot_exclusion_KL_Trp_B_23]
scaleUnit: nM
apparent KD of K4 kissing-loop reporter: 342

macromoleculeSequence: GAGAUAGAGGCGGCCGCCACUAGUGAUGUUAGUGAUGUUAGAAAGAGAAUAGAACAGGGAUUAGAUAGGACCGGGCCAGAUGGAG [vvhmullin]
scaleUnit: nM
apparent KD of K4 kissing-loop reporter: 60.1

macromoleculeSequence: GGUUCUGUUUUAGGUUUAGUGAUGUUGAAUCGAGGACCGGUACGGCCGCCACUCGGUGACGUCGUAACUUUGGAGGUCCUAACCA [theeternabot_exclusion_KL_Trp_A_47]
scaleUnit: nM
apparent KD of K4 kissing-loop reporter: 438

macromoleculeSequence: UUAAUUCCGGUGGUGUGUAGAACACAGUUACGAGGACCGGUACGGCCGCCACUCGGAUGCACUUUCAGUGAUGUUGAAAGCAUCA [Same State Tryptophan A GF 1]
scaleUnit: nM
apparent KD of K4 kissing-loop reporter: 690

macromoleculeSequence: AGUGGACAUGUCUAGAGUGAUGUUCUGGAUACCAGACACGAAAGUGUCCCUUGGCAGCCGGAGUGAUGUUCUGGCGUUCACUAAA [Omei KL Theo A Exc B v7]
scaleUnit: nM
apparent KD of K4 kissing-loop reporter: 341
